Reported IC50 for target or system Stromelysin-1 (Homo sapiens, UniProt P08254), by entry.

structure	IC50
O=C(O)[C@H]1[C@H](Cn2nnc3ccccc3c2=O)CC[C@@H]1S(=O)(=O)c1ccc(-c2ccc(Cl)cc2)cc1	0.694 µM
N#Cc1ccc(-c2ccc(S[C@H]3CC[C@@H](Cn4c(=O)nc5ccccn5c4=O)[C@@H]3C(=O)O)cc2)cc1	0.103 µM
O=C(O)[C@H]1[C@H](Cn2c(=O)nc3ccccn3c2=O)CC[C@@H]1Sc1ccc(-c2ccc(Cl)cc2)cc1	0.134 µM

---

Reported IC50 for target or system Matrix metalloproteinase-9 (Homo sapiens, UniProt P14780), by entry.

structure	unitAbbrev	boundSign	IC50
O=C(O)[C@H]1[C@H](Cn2nnc3ccccc3c2=O)CC[C@@H]1Sc1ccc(-c2c[nH]nn2)cc1	µM	>	100
CC1(C)NC(=O)N(C[C@@H]2CC[C@H](Sc3ccc(-c4ccc(Cl)cc4)cc3)[C@H]2C(=O)O)C1=O	µM	=	3.3
O=C(O)[C@H]1[C@H](CN2C(=O)c3ccccc3C2=O)CC[C@@H]1SCCc1ccc(-c2ccc(F)cc2)cc1	µM	=	0.026
O=C(O)[C@H]1[C@H](CN2C(=O)c3ccccc3C2=O)CC[C@@H]1SCc1ccc(-c2ccccc2)cc1	µM	=	3.8

---

Listed here: items and their measured pIC50.
- system: Collagenase 3 (Homo sapiens, UniProt P45452)
- experiment: Inhibitory activity against matrix metalloprotease-13 (MMP13)
pIC50: −log10 of the molar value.
assayMetric: pIC50

structure	system	assayMetric	boundSign	reading
O=C(O)[C@H]1[C@H](Cn2nnc3ccccc3c2=O)CC[C@@H]1SCCc1ccc(-c2ccc(Cl)cc2)cc1	Collagenase 3 (Homo sapiens, UniProt P45452)	pIC50	=	6.41
O=C(O)[C@H]1[C@H](Cn2nc3ccccn3c2=O)CC[C@@H]1Sc1ccc(-c2ccc(Cl)cc2)cc1	Collagenase 3 (Homo sapiens, UniProt P45452)	pIC50	=	7.49
O=C(O)[C@H]1[C@H](Cn2nnc3ccccc3c2=O)CC[C@@H]1S(=O)(=O)c1ccc(-c2ccc(Cl)cc2)cc1	Collagenase 3 (Homo sapiens, UniProt P45452)	pIC50	=	8.74
O=C(O)[C@H]1[C@H](Cn2nnc3ccccc3c2=O)CC[C@@H]1S(=O)(=O)CCc1ccc(-c2ccc(Cl)cc2)cc1	Collagenase 3 (Homo sapiens, UniProt P45452)	pIC50	=	8.55
O=C(O)[C@H]1[C@H](Cn2nnc3ccccc3c2=O)CC[C@@H]1Sc1ccc(-c2c[nH]nn2)cc1	Collagenase 3 (Homo sapiens, UniProt P45452)	pIC50	<	4.00

---

Reported pIC50 for target or system Matrix metalloproteinase-9 (Homo sapiens), by entry.
pIC50: −log10 of the molar value.

compound	system	pIC50
O=C(O)[C@H]1[C@H](Cn2nnc3ccccc3c2=O)CC[C@@H]1S(=O)(=O)CCc1ccc(-c2ccc(Cl)cc2)cc1	Matrix metalloproteinase-9 (Homo sapiens)	6.88
O=C(O)[C@H]1[C@H](Cn2nnc3ccccc3c2=O)CC[C@@H]1Sc1ccc(-c2ccncc2)cc1	Matrix metalloproteinase-9 (Homo sapiens)	6.47
O=C(O)[C@H]1[C@H](Cn2nc3ccccn3c2=O)CC[C@@H]1Sc1ccc(-c2ccc(Cl)cc2)cc1	Matrix metalloproteinase-9 (Homo sapiens)	7.43
O=C(O)[C@H]1[C@H](Cn2c(=O)nc3ccccn3c2=O)CC[C@@H]1Sc1ccc(-c2ccc(Cl)cc2)cc1	Matrix metalloproteinase-9 (Homo sapiens)	7.52
O=C(O)[C@H]1[C@H](CN2NNc3ccsc3C2=O)CC[C@@H]1Sc1ccc(-c2ccc(Cl)cc2)cc1	Matrix metalloproteinase-9 (Homo sapiens)	7.21
O=C(O)[C@H]1[C@H](CN2C(=O)c3ccccc3S2(=O)=O)CC[C@@H]1Sc1ccc(-c2ccc(Cl)cc2)cc1	Matrix metalloproteinase-9 (Homo sapiens)	7.46
O=C(O)[C@H]1[C@H](Cn2nc3n(c2=O)CCCCC3)CC[C@@H]1Sc1ccc(-c2ccc(Cl)cc2)cc1	Matrix metalloproteinase-9 (Homo sapiens)	5.42
O=C(NO)C(CCn1nnc2ccccc2c1=O)CSc1ccc(-c2ccc(Cl)cc2)cc1 (stereo not drawn)	Matrix metalloproteinase-9 (Homo sapiens)	9.30

The measured values listed here are drawn from ChEMBL document CHEMBL1145069.
